species: Rattus norvegicus; test: Open TG-GATES - Regimen: Single; assay type: toxicity, organism-based, Sprague-Dawley; parameters: regimen Single, gender Male, age 6 weeks; details: in vivo, po, 300 mg/kg, 24 h, tissue Blood, route gavage, dose level Middle
The molecules listed here are annotated with their Hb.
Number only, in g/dL; omit the unit.

molecule	Hb, g/dL
Cc1nnc2n1-c1ccc(Cl)cc1C(c1ccccc1Cl)=NC2 [TRIAZOLAM]	13.5
COC(=O)C1=C(C)NC(C)=C(C(=O)OC)C1c1ccccc1[N+](=O)[O-] [NIFEDIPINE]	13.1
CN/C(=N/CCSCc1nc[nH]c1C)NC#N [CIMETIDINE]	13.5

Which Hb reading was recorded for the molecule CNC(=C[N+](=O)[O-])NCCSCc1ccc(CN(C)C)o1 [RANITIDINE] ?
13.6

Which Hb reading was recorded for the molecule O=C(OC[C@H]1O[C@@H](OC(=O)c2cc(O)c(O)c(OC(=O)c3cc(O)c(O)c(O)c3)c2)[C@H](OC(=O)c2cc(O)c(O)c(OC(=O)c3cc(O)c(O)c(O)c3)c2)[C@@H](OC(=O)c2cc(O)c(O)c(OC(=O)c3cc(O)c(O)c(O)c3)c2)[C@@H]1OC(=O)c1cc(O)c(O)c(OC(=O)c2cc(O)c(O)c(O)c2)c1)c1cc(O)c(O)c(OC(=O)c2cc(O)c(O)c(O)c2)c1 [TANNIC ACID] ?
13
